# target system: T1, yeast β'-COP 1-304 D206A E248A (yeast (S. cerevisiae), UniProt P41811 1-304, D206A | E248A)
# T1 construct: constructs are in the Supplemental Experimental Procedures; also called D206A E248A mutant
# T1 sequence (looked up): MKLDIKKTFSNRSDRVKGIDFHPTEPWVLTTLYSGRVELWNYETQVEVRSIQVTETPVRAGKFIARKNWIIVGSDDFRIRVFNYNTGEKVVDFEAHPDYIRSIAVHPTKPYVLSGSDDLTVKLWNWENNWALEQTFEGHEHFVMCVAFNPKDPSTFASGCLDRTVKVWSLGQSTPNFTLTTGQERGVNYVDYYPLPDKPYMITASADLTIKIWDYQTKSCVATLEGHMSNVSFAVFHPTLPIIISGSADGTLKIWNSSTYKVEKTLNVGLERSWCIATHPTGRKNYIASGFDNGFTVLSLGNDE
# experiment notes: ITC; Microcal VP-ITC, 10°C; peptide in the syringe at ten times the molar concentration of the β'-COP construct in the cell; 50 mM HEPES (pH 7.4), 100 mM NaCl
# measurement setup: both partners purified
parameter: Kd

binder: RQEIIKTKLL (also called KTKLL motif; source: peptide) [KxKxx motif peptide from wild-type yeast Emp47 (RQEIIKTKLL)]
parameter: Kd
reading: < 300 µM
